I'd be grateful if you could share measured pIC50 for these entries.
- Study system: Thermotoga maritima mPPase (TmPPase) (Thermotoga maritima, UniProt Q9S5X0)
- Sequence (Q9S5X0 whole entry): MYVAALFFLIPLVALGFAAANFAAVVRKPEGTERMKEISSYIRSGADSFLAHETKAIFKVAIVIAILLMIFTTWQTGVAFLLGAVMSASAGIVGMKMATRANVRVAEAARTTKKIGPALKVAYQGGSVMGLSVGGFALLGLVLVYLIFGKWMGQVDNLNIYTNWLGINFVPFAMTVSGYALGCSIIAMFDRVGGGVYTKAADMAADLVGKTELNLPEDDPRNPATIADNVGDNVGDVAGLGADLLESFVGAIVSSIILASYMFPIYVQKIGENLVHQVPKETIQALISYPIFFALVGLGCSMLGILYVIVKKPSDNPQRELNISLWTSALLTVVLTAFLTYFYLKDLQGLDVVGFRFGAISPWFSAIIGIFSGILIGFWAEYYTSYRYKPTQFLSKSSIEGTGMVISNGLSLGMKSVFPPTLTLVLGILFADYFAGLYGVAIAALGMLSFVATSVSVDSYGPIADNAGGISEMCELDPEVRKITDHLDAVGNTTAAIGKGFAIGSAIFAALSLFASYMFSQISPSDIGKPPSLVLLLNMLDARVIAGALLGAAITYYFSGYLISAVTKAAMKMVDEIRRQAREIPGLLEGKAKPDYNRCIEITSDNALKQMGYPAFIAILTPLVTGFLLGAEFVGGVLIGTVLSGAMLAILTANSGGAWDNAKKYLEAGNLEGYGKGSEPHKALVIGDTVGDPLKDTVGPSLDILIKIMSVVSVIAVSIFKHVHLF
- Method: TmPPase inhibition assay (96-well)
- Assay type: biochemical
- Experimental context: IC50 [CI95%], TmPPase inhibition; NA = IC50 not assigned
When answering, recall that pIC50 equals minus log10 of the concentration in mol/L, and write that number alone.

// returns reported pIC50 for input C=Cc1cc2nc(C(=O)O)cc(-c3cc(C)cc(C)c3)n2n1 [19 a]
4.85

Note, next up: C=Cc1cc2nc(C(=O)Oc3ccccc3Br)cc(-c3cc(C)cc(C)c3)n2n1 [20 a]
4.74
